Listed here: items and their measured remaining activity at 25 µM.
# tested.system: WIZ protein (HiBit-WIZ fusion protein) (Homo sapiens, UniProt O95785+Q96SW2)
# Construct: expressed in transfected cells
# Sequence (O95785 whole entry, the tested form may be a part): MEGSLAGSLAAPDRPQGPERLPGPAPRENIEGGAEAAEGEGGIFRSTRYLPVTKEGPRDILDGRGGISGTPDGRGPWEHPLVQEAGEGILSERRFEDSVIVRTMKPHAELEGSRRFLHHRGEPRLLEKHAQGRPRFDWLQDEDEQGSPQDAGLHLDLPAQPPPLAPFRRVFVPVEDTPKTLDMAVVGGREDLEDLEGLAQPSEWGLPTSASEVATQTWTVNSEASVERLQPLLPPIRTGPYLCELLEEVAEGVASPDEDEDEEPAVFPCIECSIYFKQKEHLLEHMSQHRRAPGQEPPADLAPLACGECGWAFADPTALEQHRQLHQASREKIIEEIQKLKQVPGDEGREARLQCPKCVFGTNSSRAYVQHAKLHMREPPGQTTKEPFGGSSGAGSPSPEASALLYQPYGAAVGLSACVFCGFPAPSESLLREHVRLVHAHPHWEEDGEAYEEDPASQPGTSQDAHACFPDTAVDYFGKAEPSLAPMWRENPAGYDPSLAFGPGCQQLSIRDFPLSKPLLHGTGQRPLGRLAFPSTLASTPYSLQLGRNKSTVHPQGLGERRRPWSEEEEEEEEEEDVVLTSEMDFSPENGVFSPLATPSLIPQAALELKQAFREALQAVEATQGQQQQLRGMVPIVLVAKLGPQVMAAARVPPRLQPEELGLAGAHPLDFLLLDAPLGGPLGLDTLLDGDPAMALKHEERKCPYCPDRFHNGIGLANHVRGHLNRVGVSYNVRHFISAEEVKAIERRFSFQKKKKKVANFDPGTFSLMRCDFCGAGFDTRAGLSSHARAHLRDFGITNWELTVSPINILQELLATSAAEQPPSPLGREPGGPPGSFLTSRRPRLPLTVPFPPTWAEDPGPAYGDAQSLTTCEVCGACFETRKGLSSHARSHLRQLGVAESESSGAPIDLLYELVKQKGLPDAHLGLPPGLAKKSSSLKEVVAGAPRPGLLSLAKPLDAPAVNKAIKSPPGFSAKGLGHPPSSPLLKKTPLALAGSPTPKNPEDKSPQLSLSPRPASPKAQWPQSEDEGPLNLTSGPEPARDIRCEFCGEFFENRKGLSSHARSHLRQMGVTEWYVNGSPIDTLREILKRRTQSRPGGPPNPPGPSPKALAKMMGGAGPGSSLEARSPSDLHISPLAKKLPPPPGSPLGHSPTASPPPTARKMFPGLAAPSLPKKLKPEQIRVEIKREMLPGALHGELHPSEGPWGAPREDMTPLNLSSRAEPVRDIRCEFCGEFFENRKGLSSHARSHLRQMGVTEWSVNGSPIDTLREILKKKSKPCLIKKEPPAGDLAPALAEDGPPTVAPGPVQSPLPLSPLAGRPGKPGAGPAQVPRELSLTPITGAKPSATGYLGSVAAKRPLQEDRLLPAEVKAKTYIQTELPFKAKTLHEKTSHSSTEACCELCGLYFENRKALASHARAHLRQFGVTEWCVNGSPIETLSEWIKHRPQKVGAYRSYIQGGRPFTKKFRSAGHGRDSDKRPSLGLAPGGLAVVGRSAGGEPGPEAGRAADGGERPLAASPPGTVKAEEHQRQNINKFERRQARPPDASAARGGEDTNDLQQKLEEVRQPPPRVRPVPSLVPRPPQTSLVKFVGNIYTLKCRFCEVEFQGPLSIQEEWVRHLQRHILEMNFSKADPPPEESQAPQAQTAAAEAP
# Sequence (Q96SW2 whole entry, the tested form may be a part): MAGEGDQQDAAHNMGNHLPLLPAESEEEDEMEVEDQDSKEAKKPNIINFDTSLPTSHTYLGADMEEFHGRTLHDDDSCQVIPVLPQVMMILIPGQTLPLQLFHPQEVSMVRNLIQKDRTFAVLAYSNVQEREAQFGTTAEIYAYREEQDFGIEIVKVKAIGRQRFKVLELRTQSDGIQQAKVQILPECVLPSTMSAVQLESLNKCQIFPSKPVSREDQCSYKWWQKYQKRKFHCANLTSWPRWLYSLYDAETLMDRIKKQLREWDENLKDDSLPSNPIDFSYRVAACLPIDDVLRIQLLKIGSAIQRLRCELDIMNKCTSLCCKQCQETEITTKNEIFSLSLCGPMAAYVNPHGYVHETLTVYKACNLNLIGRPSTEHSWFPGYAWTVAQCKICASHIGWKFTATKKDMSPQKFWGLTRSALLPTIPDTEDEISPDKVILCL
# Sequence (Q16531 whole entry partner, the tested form may be a part): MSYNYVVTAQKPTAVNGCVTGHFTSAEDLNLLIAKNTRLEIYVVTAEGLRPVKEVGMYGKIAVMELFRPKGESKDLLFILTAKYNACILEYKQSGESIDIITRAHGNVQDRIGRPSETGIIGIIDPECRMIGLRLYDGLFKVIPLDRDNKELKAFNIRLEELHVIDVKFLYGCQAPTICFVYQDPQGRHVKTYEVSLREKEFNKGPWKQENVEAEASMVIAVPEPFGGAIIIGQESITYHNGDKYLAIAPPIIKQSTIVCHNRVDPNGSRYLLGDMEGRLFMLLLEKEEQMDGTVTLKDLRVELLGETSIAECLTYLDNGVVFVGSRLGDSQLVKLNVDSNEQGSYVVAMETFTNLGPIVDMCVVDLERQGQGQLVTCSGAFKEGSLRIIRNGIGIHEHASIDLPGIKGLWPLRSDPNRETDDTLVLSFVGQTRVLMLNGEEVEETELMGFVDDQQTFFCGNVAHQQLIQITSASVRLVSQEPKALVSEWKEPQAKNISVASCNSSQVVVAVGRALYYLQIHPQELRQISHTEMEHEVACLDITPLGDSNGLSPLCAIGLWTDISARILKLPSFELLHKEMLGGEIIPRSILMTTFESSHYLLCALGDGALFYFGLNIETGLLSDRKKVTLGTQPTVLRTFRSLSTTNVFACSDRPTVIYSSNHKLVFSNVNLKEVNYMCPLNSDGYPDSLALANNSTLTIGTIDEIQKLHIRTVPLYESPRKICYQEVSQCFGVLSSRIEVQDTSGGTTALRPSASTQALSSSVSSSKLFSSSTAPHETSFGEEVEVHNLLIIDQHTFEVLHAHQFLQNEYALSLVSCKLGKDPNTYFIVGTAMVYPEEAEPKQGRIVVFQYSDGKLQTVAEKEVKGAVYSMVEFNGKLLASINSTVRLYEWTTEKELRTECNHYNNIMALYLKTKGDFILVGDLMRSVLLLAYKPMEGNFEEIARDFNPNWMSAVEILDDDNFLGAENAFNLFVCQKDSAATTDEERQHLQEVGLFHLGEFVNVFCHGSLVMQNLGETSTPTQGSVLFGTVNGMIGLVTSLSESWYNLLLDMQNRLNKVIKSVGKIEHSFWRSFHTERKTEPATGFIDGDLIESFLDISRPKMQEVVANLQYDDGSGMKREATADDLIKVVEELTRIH
# test.name: Quantification of WIZ protein levels in HiBit tag fusion protein assay (WIZ HiBit assay in 293T cells)
# Assay type: cell-based
# measurement.context: HEK-293T, DMSO-normalized, curve-fitted percentage of WIZ-HiBit remaining at 25 uM; 293T cells; read-out: WIZ Amax

compound: O=C1CCN(c2cnn3ccc(CN4CCN(CC5CC(F)(F)C5)CC4)cc23)C(=O)N1
value.units: %
remaining activity at 25 µM: 19
--
compound: O=C1CCN(c2cnn3ccc(CN4CCN(CC5CCCCC5)CC4=O)cc23)C(=O)N1
value.units: %
remaining activity at 25 µM: 100
--
compound: CO[C@H]1C[C@@H](CN2CCN(Cc3ccn4ncc(N5CCC(=O)NC5=O)c4c3)C[C@@H]2C)C1
value.units: %
remaining activity at 25 µM: 20
--
compound: C[C@H]1C[C@H](Cc2ccn3ncc(-n4cc(Cl)c(=O)[nH]c4=O)c3c2)CCN1CC1CCC(F)(F)CC1
value.units: %
remaining activity at 25 µM: 10
--
compound: C[C@H]1C[C@H](Cc2ccn3ncc(N4CCC(=O)NC4=O)c3c2)CCN1S(C)(=O)=O
value.units: %
remaining activity at 25 µM: 20
--
compound: O=C1CCN(c2cnn3ccc(CC4CCN(C(=O)c5ccccc5)CC4)cc23)C(=O)N1
value.units: %
remaining activity at 25 µM: 67
--
compound: O=C1CCN(c2cnn3ccc(CN4CCN5CCC[C@@H]5C4)cc23)C(=O)N1
value.units: %
remaining activity at 25 µM: 37
--
compound: C[C@H]1CN(Cc2ccn3ncc(N4CCC(=O)NC4=O)c3c2)CCN1CCC1CCOCC1
value.units: %
remaining activity at 25 µM: 22

====

# tested.system: WIZ protein (HiBit-WIZ fusion protein) (Homo sapiens, UniProt O95785+Q96SW2)
# Construct: expressed in transfected cells
# test.name: Quantification of WIZ protein levels in HiBit tag fusion protein assay (WIZ HiBit assay in 293T cells)
# Type: cell-based
# measurement.context: HEK-293T, DMSO-normalized, curve-fitted percentage of WIZ-HiBit remaining at 25 uM; 293T cells; read-out: WIZ Amax
Listed here: items and their measured remaining activity at 25 µM.

compound: C[C@H]1CN(Cc2ccn3ncc(-n4ccc(=O)[nH]c4=O)c3c2)CCN1CC1CCC(F)(F)CC1
value.units: %
remaining activity at 25 µM: 15

compound: O=C1CCN(c2cnn3ccc(CN4C[C@H]5C[C@@H]4CN5Cc4cccnc4)cc23)C(=O)N1
value.units: %
remaining activity at 25 µM: 65

compound: C[C@H]1C[C@H](Cc2ccn3ncc(N4CCC(=O)NC4=O)c3c2)CCN1CC1CCCCC1
value.units: %
remaining activity at 25 µM: 12

compound: CO[C@H]1CC[C@@H](CN2CCC(Cc3ccn4ncc(N5CCC(=O)NC5=O)c4c3)CC2)CC1
value.units: %
remaining activity at 25 µM: 6

====

# tested.system: WIZ protein (HiBit-WIZ fusion protein) (Homo sapiens, UniProt O95785+Q96SW2)
# Construct: expressed in transfected cells
# test.name: Quantification of WIZ protein levels in HiBit tag fusion protein assay (WIZ HiBit assay in 293T cells)
# Assay type: cell-based
# Parameters: dose or concentration left out as unconfirmed
# measurement.context: HEK-293T, read-out: WIZ Amax
Listed here: items and their measured remaining activity.
reported.endpoint: remaining activity

compound: COCC(F)(F)CN1CC[C@@H](Cc2ccn3ncc(N4CCC(=O)NC4=O)c3c2)C[C@@H]1C
tested.system: WIZ protein (HiBit-WIZ fusion protein) (Homo sapiens, UniProt O95785+Q96SW2)
result: 28%
--
compound: C[C@H]1CN(Cc2ccn3ncc(N4CCC(=O)NC4=O)c3c2)CCN1C1CCC1
tested.system: WIZ protein (HiBit-WIZ fusion protein) (Homo sapiens, UniProt O95785+Q96SW2)
result: 17%
--
compound: C[C@H]1C[C@H](Cc2ccn3ncc(N4CCC(=O)NC4=O)c3c2)CCN1C(=O)C1CC1
tested.system: WIZ protein (HiBit-WIZ fusion protein) (Homo sapiens, UniProt O95785+Q96SW2)
result: 19%

Origin of the recorded values: patent US11787785B2
